Record form. Attribute: growth, % of control. Fill in for each entry.
Assay: qHTS profiling of the MIPE4 collection as inhibitors of Plasmodium falciparum (HB3) proliferation (AID 743347);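 also: plate controls were DMSO vehicle wells for no effect and artemisinin wells for full effect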
Settings: P. falciparum HB3 in erythrocytes, SYBR Green DNA, 72 h; at 28.5 µM (top of the series)
Give bare numbers, in %.

| molecule | growth, % of control, % |
| --- | --- |
| O=C(Nc1cccc(C(=O)Nc2ccc(S(=O)(=O)O)c3cc(S(=O)(=O)O)cc(S(=O)(=O)O)c23)c1)Nc1cccc(C(=O)Nc2ccc(S(=O)(=O)O)c3cc(S(=O)(=O)O)cc(S(=O)(=O)O)c23)c1 | 83.4 |
| COC(=O)C1=C(C)NC(C)=C(C(=O)OCC(C)C)C1c1ccccc1[N+](=O)[O-] (configuration not stated) | 9.44 |
| C[N+](C)(CCCCCC[N+](C)(C)CCCN1C(=O)c2cccc3cccc(c23)C1=O)CCCN1C(=O)c2cccc3cccc(c23)C1=O | 4.26 |

// input: 4 molecules below; output: growth, % of control for each
1. COc1cc(NC(C)CCCN)c2ncccc2c1 (configuration not stated)
2. C=CC(C)=C[C@@]1(C)SC(=O)C(C)=C1O
3. C=C[C@@H]1CN2CC[C@@H]1C[C@H]2[C@H](O)c1ccnc2ccc(OC)cc12
4. CC[C@@H](C)[C@H]1O[C@]2(CC[C@H]1C)C[C@@H]1C[C@@H](CC=C(C)[C@@H](O[C@H]3C[C@H](OC)[C@@H](O[C@H]4C[C@H](OC)[C@@H](O)[C@H](C)O4)[C@H](C)O3)[C@@H](C)C=CC=C3CO[C@@H]4[C@H](O)C(C)=C[C@@H](C(=O)O1)[C@]34O)O2

8.75
77.3
5.53
12.5
